Molecular target: T1, soluble murine CD25 (His-tagged recombinant mouse IL-2Rα/CD25, R&D Systems) (mouse, UniProt P01590 22-236, limits assumed)
T1 construct: Bought reagent, described only as soluble and His-tagged; also called soluble CD25; mouse CD25
T1 sequence (looked up): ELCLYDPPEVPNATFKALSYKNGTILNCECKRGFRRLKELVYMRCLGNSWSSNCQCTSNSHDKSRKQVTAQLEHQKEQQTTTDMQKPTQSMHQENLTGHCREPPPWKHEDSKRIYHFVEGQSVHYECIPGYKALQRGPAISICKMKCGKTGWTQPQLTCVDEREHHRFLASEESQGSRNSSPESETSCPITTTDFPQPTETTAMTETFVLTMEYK
Test: yeast surface display, flow cytometry
experimental-readout: binding result

[[record]]
binder = "wild-type murine IL-2 (yeast-displayed) (ligand, Aga2p fusion with HA and c-myc tags; also called mIL-2; mouse IL-2) APTSSSTSSSTAEAQQQQQQQQQQQQHLEQLLMDLQELLSRMENYRNLKLPRMLTFKFYLPKQATELKDLQCLEDELGPLRHVLDLTQSKSFQLEDAENFISNIRVTVVKLKGSDNTFECQFDDESATVVDFLRRWIAFCQSIISTSPQ"
experimental_readout = "binding result"
recorded_result = "binds"


Every entry's value here was drawn from patent US20150132254A1.
